Recorded values, source ChEMBL document CHEMBL1125213.

# Study system: Adenosine receptors; A1 & A2 (Rattus norvegicus) (UniProt P29276+P25099+P30543)
# Test protocol: It is the ratio of Ki value of A1 receptor to that of A2 receptor.
# Format: protein assay
Measured Selectivity ratio values are reported for all entries that follow.
Measure name: Selectivity ratio

{"columns": ["Structure string", "Censoring qualifier", "Endpoint result"],
 "data": [
  ["CC[C@@H](Nc1ncnc2c1ncn2C)c1ccccc1.Cl", "=", 22],
  ["CC[C@H](Nc1ncnc2c1ncn2C)c1ccccc1.Cl", "=", 7.6],
  ["Nc1ncnc2c1ncn2CCO", "<", 0.5]
]}

---

Measured Selectivity ratio values are reported for all entries that follow.
# Study system: Adenosine receptors; A1 & A2 (Rattus norvegicus) (UniProt P29276+P25099+P30543)
# Test protocol: It is the ratio of Ki value of A1 receptor to that of A2 receptor.
# Assay type: protein assay
Measure name: Selectivity ratio

{"columns": ["Structure string", "Endpoint result"],
 "data": [
  ["Nc1ncnc2c1ncn2-c1ccccc1", 2],
  ["OCCn1cnc2c(NC3CCCC3)ncnc21", 14],
  ["CC[C@@H](Nc1nc(Cl)nc2c1ncn2C)c1ccccc1", 2.1],
  ["CC[C@H](Nc1ncnc2c1ncn2-c1ccccc1)c1ccccc1", 2.5]
]}

---

# Study system: Adenosine A2 receptor (Rattus norvegicus, UniProt P29276+P30543)
# Test protocol: Tested for inhibition of rat PC12 adenylate cyclase stimulation by using NECA as a radioligand
# Assay type: cell-based
# Measurement conditions: pc-12

{"columns": ["Structure string", "Ki (µM)"],
 "data": [
  ["Nc1ncnc2c1ncn2C1CCCC1", 3.4],
  ["CC[C@H](Nc1ncnc2c1ncn2-c1ccccc1)c1ccccc1", 9.9],
  ["CCn1cnc2c(NC3CCCCC3)ncnc21", 8.5],
  ["c1nc(NC2CCCC2)c2ncn(C3CCCC3)c2n1", 5.1],
  ["Cn1cnc2c(Nc3ccccc3)ncnc21", 107],
  ["Cn1cnc2c(Nc3ccccc3)nc(Cl)nc21", 21],
  ["Cn1cnc2c(N)nc(Cl)nc21", 16],
  ["CC[C@@H](Nc1ncnc2c1ncn2C)c1ccccc1.Cl", 25],
  ["Cn1cnc2c(NC3CCCC3)ncnc21", 25],
  ["CCn1cnc2c(N)ncnc21", 5.6],
  ["CC[C@@H](Nc1ncnc2c1ncn2-c1ccccc1)c1ccccc1", 11],
  ["c1ccc(-n2cnc3c(NC4CCCC4)ncnc32)cc1", 47],
  ["Cn1cnc2c(NC3CCCCC3)ncnc21", 21],
  ["c1ccc(Nc2ncnc3c2ncn3-c2ccccc2)cc1", 50],
  ["OCCn1cnc2c(NC3CCCC3)ncnc21", 27]
]}
